Test system: RS4;11 cells
Experiment: RS4;11 cell viability assay (CellTiter Glo);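 note: acute lymphoblastic leukemia line RS4,11, EC50 derived from percentage of viable cells after treatment relative to untreated controls, cell killing taken as a measure of Bcl-2 inhibition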
Type: cell-based, human
Settings: Homo sapiens, RS4-11, 48 h, 50,000 cells per well, 10% human serum, 48 hours; read-out: RS4; 11 EC50 Values
property: pEC50
// pEC50: -log10(molar conc.)

Quick one: pEC50 of CC1(C)CCC(CN2CCN(c3ccc(C(=O)NS(=O)(=O)c4ccc(NC[C@@H]5CCCOC5)c([N+](=O)[O-])c4)c(Oc4cnc5[nH]ccc5c4)c3)CC2)=C(c2ccc(Cl)cc2)C1 ?
7.86

Now the compound O=C(NS(=O)(=O)c1ccc(NCC2CCOCC2)c([N+](=O)[O-])c1)c1ccc(N2CCN(CC3=C(c4ccc(Cl)cc4)CCC4(CCN(C(CF)CF)CC4)C3)CC2)cc1Oc1cnc2[nH]ccc2c1
8.14

Now the compound CC1(C)CCC(CN2CCN(c3ccc(C(=O)NS(=O)(=O)c4ccc(OCC5(F)CCOCC5)c(C(F)(F)F)c4)c(Oc4cnc5[nH]ccc5c4)c3)CC2)=C(c2ccc(Cl)cc2)C1
6.89

Now the compound CC1(C)CCC(CN2CCN(c3ccc(C(=O)NS(=O)(=O)c4ccc(NC[C@H]5CC[C@@H](O)C5)c([N+](=O)[O-])c4)c(Oc4cnc5[nH]ccc5c4)c3)CC2)=C(c2ccc(Cl)cc2)C1
7.75

---
Quick one: pEC50 of CC1(C)CCC(CN2CCN(c3ccc(C(=O)NS(=O)(=O)c4ccc(OCC5CCN(C6COC6)CC5)c(Cl)c4)c(Oc4cnc5[nH]ccc5c4)c3)CC2)=C(c2ccc(Cl)cc2)C1 ?
7.28
